System: Escherichia coli
Assay Overview: In vitro concentration required for growth inhibition of 5-fluorouracil resistant strain of Escherichia coli in presence of thymine metabolite at 10e-3 M concentration.
Format: functional, organism-based
pIC50: −log10 of the molar value.
Endpoint Label: pIC50

>>> print(df.to_string())
                smiles_entry      study_target  endpoint_label  measurement
0  O=c1[nH]c(=O)n(COCCO)cc1F  Escherichia coli           pIC50         3.14

====

System: Escherichia coli
Assay Overview: In vitro concentration required for growth inhibition of 5-fluorouracil resistant strain of Escherichia coli in presence of uracil metabolite at 10e-3 M concentration.
Assay type: functional, organism-based
pIC50: −log10 of the molar value.
Endpoint Label: pIC50

>>> df
                smiles_entry  measurement
0  O=c1[nH]c(=O)n(COCCO)cc1F         5.08

====

Reported log10 IC50 by item:
Tested on: Escherichia coli
Assay Overview: In vitro inhibition of Escherichia coli K-12 growth.
Type: functional, organism-based
Endpoint Label: log10 IC50 (log10 of the value in µM)

In [3]: df
Out[3]:
                                    compound  endpoint_label  measurement
 0       Cc1cn(COCCN=[N+]=[N-])c(=O)[nH]c1=O      log10 IC50         2.40
 1    O=C(OCCOCn1cc(F)c(=O)[nH]c1=O)c1ccccc1      log10 IC50         0.95
 2                         COc1ccn(C)c(=O)n1      log10 IC50         1.79
 3                      Nc1ccn(COCCO)c(=O)n1      log10 IC50         1.94
 4  CC(=O)C(C)n1ccc(N)nc1=O (configuration not stated)      log10 IC50         2.75
 5                  NC(=O)OCCOCn1ccc(N)nc1=O      log10 IC50         2.96
 6  CCCCCCC(C(C)=O)n1ccc(N)nc1=O (configuration not stated)      log10 IC50         1.48
 7                 Cc1cn(COCCN)c(=O)[nH]c1=O      log10 IC50         2.49
 8                 O=c1[nH]c(=O)n(COCCO)cc1F      log10 IC50         0.08
 9                  O=c1ccn(COCCO)c(=O)[nH]1      log10 IC50         2.51
10    Cc1cn(COCCOC(=O)c2ccccc2)c(=O)[nH]c1=O      log10 IC50         2.93
11                      CN(C)c1ccn(C)c(=O)n1      log10 IC50         1.90
12              [N-]=[N+]=NCCOCn1ccc(N)nc1=O      log10 IC50         2.64
13         Nc1ccn(COCCOC(=O)c2ccccc2)c(=O)n1      log10 IC50         2.95
14                        Cn1ccc(=O)n(C)c1=O      log10 IC50         1.18
15       O=C(OCCOCn1ccc(=O)[nH]c1=O)c1ccccc1      log10 IC50         2.00

====

System: Escherichia coli
Assay Overview: In vitro concentration required for growth inhibition of 5-fluorouracil resistant strain of Escherichia coli in presence of uridine metabolite at 10e-3 M concentration.
Format: functional, organism-based
pIC50: −log10 of the molar value.
Endpoint Label: pIC50

In [3]: df
Out[3]:
                smiles_entry  measurement
0  O=c1[nH]c(=O)n(COCCO)cc1F         3.62
